tested system: SMARCA2 (Homo sapiens, UniProt P51531)
Sequence (P51531 1-1572 isoform P51531-2): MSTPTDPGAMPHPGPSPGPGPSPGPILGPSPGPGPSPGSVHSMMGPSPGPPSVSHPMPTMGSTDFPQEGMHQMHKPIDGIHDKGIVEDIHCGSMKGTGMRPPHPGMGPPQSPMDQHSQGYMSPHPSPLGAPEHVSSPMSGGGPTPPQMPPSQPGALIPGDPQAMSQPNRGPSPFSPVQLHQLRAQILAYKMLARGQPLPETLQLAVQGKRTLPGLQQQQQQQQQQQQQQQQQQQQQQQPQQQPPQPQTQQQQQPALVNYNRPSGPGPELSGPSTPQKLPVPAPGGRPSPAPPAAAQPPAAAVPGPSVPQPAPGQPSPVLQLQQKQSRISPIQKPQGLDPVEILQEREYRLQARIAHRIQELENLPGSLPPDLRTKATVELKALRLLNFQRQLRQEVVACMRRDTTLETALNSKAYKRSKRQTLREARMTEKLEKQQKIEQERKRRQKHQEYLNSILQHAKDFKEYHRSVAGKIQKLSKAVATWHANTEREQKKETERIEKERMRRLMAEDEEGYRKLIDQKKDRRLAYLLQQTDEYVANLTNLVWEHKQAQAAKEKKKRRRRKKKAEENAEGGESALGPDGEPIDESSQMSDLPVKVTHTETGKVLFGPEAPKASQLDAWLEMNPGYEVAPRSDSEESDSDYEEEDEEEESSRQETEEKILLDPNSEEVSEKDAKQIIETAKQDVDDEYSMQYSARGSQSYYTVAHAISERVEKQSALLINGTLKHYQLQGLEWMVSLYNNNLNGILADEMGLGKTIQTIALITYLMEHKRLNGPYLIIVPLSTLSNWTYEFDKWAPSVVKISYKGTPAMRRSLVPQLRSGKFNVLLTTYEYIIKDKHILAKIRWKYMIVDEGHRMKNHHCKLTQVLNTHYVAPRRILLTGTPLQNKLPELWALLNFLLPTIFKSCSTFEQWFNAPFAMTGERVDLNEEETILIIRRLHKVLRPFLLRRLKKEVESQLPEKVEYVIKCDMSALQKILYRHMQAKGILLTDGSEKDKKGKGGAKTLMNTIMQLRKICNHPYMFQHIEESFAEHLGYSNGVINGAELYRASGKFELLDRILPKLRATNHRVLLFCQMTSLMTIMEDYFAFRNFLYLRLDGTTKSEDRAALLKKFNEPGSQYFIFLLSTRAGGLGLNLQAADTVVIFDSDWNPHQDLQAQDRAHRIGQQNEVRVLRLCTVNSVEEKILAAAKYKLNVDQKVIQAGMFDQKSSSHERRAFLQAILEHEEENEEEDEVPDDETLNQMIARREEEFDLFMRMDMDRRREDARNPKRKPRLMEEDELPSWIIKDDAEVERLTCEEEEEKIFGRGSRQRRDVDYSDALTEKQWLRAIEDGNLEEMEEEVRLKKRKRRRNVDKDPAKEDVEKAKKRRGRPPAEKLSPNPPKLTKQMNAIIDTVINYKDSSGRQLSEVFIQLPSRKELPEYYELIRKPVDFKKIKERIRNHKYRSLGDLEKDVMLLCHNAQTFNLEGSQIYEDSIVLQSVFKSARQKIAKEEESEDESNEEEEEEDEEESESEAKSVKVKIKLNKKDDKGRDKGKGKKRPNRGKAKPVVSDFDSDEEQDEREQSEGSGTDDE
assay text: BROMOscan ligand-binding assay
test settings: read-out: KD (BROMOscan); sheet prints no unit (nM)
outcome measure: Kd

1. COc1cc2c(cc1NS(=O)(=O)c1ccc(Br)cc1C)n(C)c(=O)n2C [OF-1] ... > 30000 nM

====

tested system: ATAD2A (Homo sapiens)
Sequence (Q6PL18 980-1092 limits assumed): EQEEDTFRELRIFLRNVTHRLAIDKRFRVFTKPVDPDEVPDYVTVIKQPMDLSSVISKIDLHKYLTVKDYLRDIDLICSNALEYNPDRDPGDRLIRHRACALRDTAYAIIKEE
assay text: BROMOscan ligand-binding assay
test settings: KD, BROMOscan, ATAD2A
pKd: −log10 of the molar value.
outcome measure: pKd

1. COc1ccc(CCc2nc3cc(-c4c(C)noc4C)ccc3n2C[C@H](C)N2CCOCC2)cc1Cl ... < 4.00

====

tested system: PCAF (Homo sapiens, UniProt Q92831)
Sequence (Q92831 723-827 limits assumed): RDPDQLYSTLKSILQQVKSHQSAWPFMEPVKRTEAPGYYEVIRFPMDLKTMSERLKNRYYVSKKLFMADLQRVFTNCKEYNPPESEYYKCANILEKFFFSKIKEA
assay text: BROMOscan ligand-binding assay
pKd: −log10 of the molar value.
outcome measure: pKd

1. CCCS(=O)(=O)c1nc(NC2CC2)cc(-c2ccc3c(ccn3C3CC(C)(C)NC(C)(C)C3)c2)n1 ... < 4.52

====

tested system: BRD8(1) (Homo sapiens)
Sequence (Q9H0E9 706-811 limits assumed): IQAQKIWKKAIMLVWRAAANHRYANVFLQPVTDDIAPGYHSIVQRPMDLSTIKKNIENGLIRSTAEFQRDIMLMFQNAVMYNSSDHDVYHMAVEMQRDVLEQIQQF
assay text: BROMOscan ligand-binding assay
test settings: read-out: KD (BROMOscan); sheet prints no unit (nM)
outcome measure: Kd

1. COc1cc2c(cc1NS(=O)(=O)c1ccc(Br)cc1C)n(C)c(=O)n2C ... > 30000 nM

====

tested system: BRPF1 (Homo sapiens, UniProt P55201)
Sequence (P55201 628-732 limits assumed): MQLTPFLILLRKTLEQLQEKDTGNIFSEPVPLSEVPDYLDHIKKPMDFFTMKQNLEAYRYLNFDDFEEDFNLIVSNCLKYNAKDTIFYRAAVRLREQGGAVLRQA
assay text: BROMOscan ligand-binding assay
test settings: BROMOscan Gene Symbol BRPF1
outcome measure: Kd (µM)

1. COc1ccc(CCc2nc3cc(-c4c(C)noc4C)ccc3n2CCN2CCOCC2)cc1 [CBP30-383] ... 11
2. Cc1noc(C)c1-c1ccc2c(c1)nc(CCc1ccccc1)n2CCN1CCOCC1 [CBP30-298] ... 18

====

tested system: BRDT(1) (Homo sapiens, UniProt Q58F21)
assay text: BROMOscan ligand-binding assay
test settings: KD, BROMOscan, BRDT(1)
outcome measure: Kd (nM)

1. COc1ccc(CCc2nc3cc(-c4c(C)noc4C)ccc3n2C[C@H](C)N2CCOCC2)cc1Cl ... 2600

====

tested system: SETDB1 (Homo sapiens)
Construct: purchased DiscoverX BROMOscan (bromodomains); SGC in-house methyltransferase panel
assay text: Methyl transferase scintillation proximity assay
Format: biochemical
test settings: average of two measurements, read-out: MTases Inhibition (%)
Attribute: inhibition at 10 µM
outcome measure: inhibition at 10 µM (%)

1) CO[C@H]1CNC[C@@H](OCC2CCC(F)(F)CC2)[C@@H]1Nc1ncc(-c2cncc(C)c2)c2cc(C)c(=O)[nH]c12 ... 1
2) COc1cc(Cl)c(C(=O)N[C@@H](CN[C@H]2CC[C@@H](N)CC2)Cc2ccc(C#N)cc2)cc1-c1ccc(CN[C@H](C)c2ccc(C)cc2)o1 ... 8
3) Cc1c(NC(=O)c2cc(C(N)=O)nc3cc(F)ccc23)c(C(F)(F)F)nn1Cc1ccc(C#N)cc1 ... -4
4) Cc1nnc2c3ccccc3c(N[C@@H](C)[C@H](c3ccccc3)N(C)C)nn12 ... 1
5) Cc1c(NC(=O)c2cc(C(N)=O)nc3cc(F)ccc23)c(C(F)(F)F)nn1Cc1ccc(C(C)(C)C)cc1 ... 5
6) CN(C)CCCOc1ccc(-c2cc(NCCCn3cccn3)nc(S(C)(=O)=O)n2)cc1 ... -1
7) CN1C[C@H](Nc2cnn(C)c(=O)c2Br)C[C@H](c2ccccc2)C1 ... -1
